- ASSAY TARGET: IRAK4 (Homo sapiens)
- Construct: with 0.1 nM IRAK4, 1.6 μM of biotinylated peptide substrate and 10 μM ATP
- Sequence (Q9NWZ3 whole entry): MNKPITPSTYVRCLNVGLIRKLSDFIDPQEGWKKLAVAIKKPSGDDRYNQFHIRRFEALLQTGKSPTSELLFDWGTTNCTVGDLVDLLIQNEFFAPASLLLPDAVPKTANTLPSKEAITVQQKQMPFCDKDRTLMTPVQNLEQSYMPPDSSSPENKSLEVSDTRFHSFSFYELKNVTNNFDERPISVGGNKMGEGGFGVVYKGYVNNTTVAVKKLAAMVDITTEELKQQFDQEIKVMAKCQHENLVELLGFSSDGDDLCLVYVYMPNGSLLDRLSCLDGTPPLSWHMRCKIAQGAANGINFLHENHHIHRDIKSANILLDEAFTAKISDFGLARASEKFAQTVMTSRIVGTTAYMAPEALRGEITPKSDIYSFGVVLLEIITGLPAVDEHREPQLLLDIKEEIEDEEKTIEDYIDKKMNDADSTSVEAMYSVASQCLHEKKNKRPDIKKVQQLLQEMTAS
- EXPERIMENT: IRAK4 MSD Biochemical Assay (1 mM ATP, 2 h)
- TEST CONDITIONS: room temperature, read-out: IRAK4 MSD Biochemical Assay (1 mM ATP, 2 h) IC50
pIC50: −log10 of the molar value. Where a name gives a salt, the structure may show the parent alone.
READOUT LABEL: pIC50

{"columns": ["MOLECULE", "OBSERVED"],
 "data": [
  ["COc1cc2nn(C34COC(C)(C3)C4)cc2cc1C(=O)Nc1cccc(C(F)F)n1 [Example 87, trifluoroacetate]", 8.62],
  ["COc1cccc(NC(=O)c2cc3cn(C4CCOCC4)nc3cc2OC(C)C)n1", 8.85]
]}

[A] COc1cc2nn(C3CCOCC3)cc2cc1C(=O)Nc1cccc(C(F)F)n1.Cl [Example 24, Hydrochloride]
[B] CC12CCC(n3cc4cc(C(=O)Nc5ccn(C(F)F)n5)c(OC5CCC5)cc4n3)(CC1)CO2
// which entry has the larger pIC50 value, A or B ? Your answer should be the label of the entry you select.
B
(B: 9.05, A: 8.20)
